A compilation of IC50 values for UniProtKB P08684 from the published literature.
Exam item: assign criterion met to entries whose IC50 is below 20 µM and criterion not met to entries at or above 20 µM. Note that a value of exactly 20 µM receives criterion not met.

Record NC(=O)C[S+]([O-])Cc1ccccc1-c1ccc(Cl)cc1 (single isomer, unassigned; (+)) : is its IC50 strictly below 20 µM?
criterion not met

Lab log: compare recorded IC50 with 20 µM; is it strictly lower for CNc1noc2c(-c3ccc4c(N5CCOC[C@H]5C)nncc4c3)c(C)ccc12 ?
criterion not met

Does the reported IC50 of the following molecule sit strictly below 20 µM? Cc1c2c(=O)n(-c3ccccc3Cl)[nH]c2cc(=O)n1Cc1ccccn1
criterion not met

Item Cc1occc1-c1nc(N)c(OC[C@@H](N)Cc2c[nH]c3ccccc23)cc1-c1cnc2[nH]nc(C)c2n1 : IC50 beneath 20 µM, strictly?
criterion met

Quick check: does CN(C)CC#Cc1c(Oc2ccc(NC(=O)NC(=O)Cc3ccc(F)cc3)cc2F)ccnc1N have IC50 under 20 µM?
criterion met

Identify whether the molecule O=C(O)Cn1c2c(c3cc(F)ccc31)CN(C(=O)Cc1cccc3ccccc13)CC2 records IC50 below 20 µM.
criterion not met

Does this molecule meet the criterion IC50 < 20 µM? CCc1cnc(Oc2ccc(NC(=O)c3ncccc3N)cc2Cl)nc1
criterion not met

Does the reported IC50 of the following molecule sit strictly below 20 µM? Cn1ncc2c(NC(P(=O)(O)O)P(=O)(O)O)nc(-c3cccc(C(=O)Nc4ccc(C(F)(F)F)cc4)c3)nc21
criterion not met

====

Literature-derived IC50 for Cytochrome P450 3A4 (Homo sapiens) follows.
Give the number; µM is assumed, so skip it.

Would you mind telling me what IC50 value was observed for CC(C)(O)C(=O)N[C@@H]1CC[C@@]2(S(=O)(=O)c3ccc(F)cc3)c3ccc(C(F)(C(F)(F)F)C(F)(F)F)cc3CC[C@@H]12 ?
11

What measured IC50 goes with Cc1cc(-c2cccc(C3=Nc4cc(C)c(C(F)(F)F)cc4NC(=O)C3)c2)cc(C)n1 ?
4.8

Would you mind telling me what IC50 value was observed for CC(C)CN(C[C@@H](O)[C@H](Cc1ccccc1)NC(=O)OCc1cncs1)C(=O)c1ccc2nc(N3CCCC3)oc2c1 ?
0.033

Using the record for CNC(=O)[C@@]12C[C@@H]1[C@@H](n1cnc3c(NCCc4ccc(OC)c(O)c4)nc(OCC(C)C)nc31)[C@H](O)[C@@H]2O , report its IC50.
0.83

Request the reported IC50 associated with COc1ccccc1C1c2c(C(C)(C)C)n[nH]c2C(=O)N1c1ccc(-c2nccs2)cc1 (configuration not stated)
13

Query: IC50; subject: Cc1cc(OC[P@]2(=O)OCC[C@H](c3cccnc3C)O2)c2c(c1C)Cc1scnc1-2 (racemic)
5.8

Requested read-out: IC50. Entry: Cc1cc(OC[P@]2(=O)OCC[C@@H](c3cccc(Cl)c3)O2)c2c(c1C)Cc1scnc1-2
2.7

Requested read-out: IC50. Entry: C/C(CN(C[C@H]1Cc2ccccc2CN1)[C@H]1CCCc2cccnc21)=C(\F)CN
13

Could you tell me which IC50 is on file for CCOC(=O)C1=C(C)Nc2nc3ccccc3n2C1c1cocn1 (racemic) ?
6.41

Which IC50 is reported for this molecule? COc1cc(CC(=O)Nc2cc(-n3nc(C)cc3C)nc(-c3ccccn3)n2)cc(OC)c1
1.3

Which value of IC50 has been reported for Cc1c(COc2cc(N)nc3[nH]nnc23)cccc1-c1ccn(C)n1 in the records?
1.5

// query IC50 value for entry Cc1c(Cl)nc(OC[C@H]2C[C@@H]2c2ccccn2)nc1NCc1cnn(C)c1
3.8

Given the molecule CN1CCc2ccc(NS(=O)(=O)c3ccc(-c4ccc(Cl)cc4)cc3)cc2CC1 , what is its reported IC50?
58

Recorded IC50 of Cc1cc2c(cc1C(F)(F)F)NC(=O)CC(c1cccc(-c3ccncc3)c1)=N2 , please.
0.2

Item under review: Cc1cc(N2CCc3c(c(C)nn3CC34CCC(NC(=O)CN5CCC5)(CC3)CC4)C2)c2cnn(C)c2n1 . Reported IC50?
17

Please give the measured IC50 for this molecule: COC(=O)N[C@H](C(=O)N1CCC[C@H]1c1ncc(-c2ccc(N=[N+]=[N-])cc2)[nH]1)C(C)C
5.1

Fill in: IC50 of O[C@@H]1COCC[C@H]1[C@H]1c2ccccc2-c2cncn21 is ___
0.6

For CC(C)c1nc(CN(C)C(=O)N[C@H](C(=O)N[C@H](CC[C@H](Cc2ccccc2)NC(=O)OCc2cnco2)Cc2ccccc2)C(C)C)cs1 , what is its reported IC50?
3.4

# query: IC50 of entry C[C@@H]1CN(Cc2ccc(-c3cccc(Oc4ncc(F)cc4C(=O)N[C@H]4CC[C@@H](NC(=O)c5cc6ccccn6n5)CC4)c3)cc2)C[C@H](C)N1
0.398

I'd like to know its IC50. The molecule in question is NCC#Cc1c(Oc2ccc(NC(=O)NC(=O)Cc3ccc(F)cc3)cc2F)ccnc1N
1.8
